Biological target: IRAK-4 (Homo sapiens, UniProt Q9NWZ3)
Sequence (Q9NWZ3 whole entry): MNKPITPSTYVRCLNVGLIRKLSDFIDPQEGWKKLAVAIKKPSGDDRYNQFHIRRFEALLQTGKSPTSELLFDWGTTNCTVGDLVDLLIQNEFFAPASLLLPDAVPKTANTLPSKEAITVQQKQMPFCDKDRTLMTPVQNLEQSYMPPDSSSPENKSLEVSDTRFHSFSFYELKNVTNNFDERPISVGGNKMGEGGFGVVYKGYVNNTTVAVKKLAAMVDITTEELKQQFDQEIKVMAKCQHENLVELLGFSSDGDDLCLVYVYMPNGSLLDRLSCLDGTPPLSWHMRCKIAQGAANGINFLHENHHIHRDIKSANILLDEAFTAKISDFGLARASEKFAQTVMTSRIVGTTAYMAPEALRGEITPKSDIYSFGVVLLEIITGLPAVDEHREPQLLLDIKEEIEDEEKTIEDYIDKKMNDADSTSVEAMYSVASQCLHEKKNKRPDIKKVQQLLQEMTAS
Assay: IRAK-4 ELISA, OCI-Ly10 degradation
Format: cell-based
Set-up: endogenous in cells
Conditions: OCI-Ly10, OCI-Ly10 cells, treated overnight
reported_property: Dmax

COc1cc2nn(C3CCN(CC4CCN(c5ccc6c(c5)C(=O)N(C5CCC(=O)NC5=O)C6=O)CC4)CC3)cc2cc1NC(=O)c1cnn2cccnc12 (stereo not drawn)    ≥ 90%

Consider the additional compound presented here.
Q: I'd like to know its Dmax. The compound in question is COc1cc2nn(C3CCN(CC4(F)CN(c5ccc6c(c5)CN(C5CCC(=O)NC5=O)C6=O)C4)CC3)cc2cc1NC(=O)c1cnn2cccnc12 (stereo not drawn)
A: < 70%

* * *

Target: IRAK-4 (Homo sapiens)
Assay: IRAK-4 ELISA, PBMC degradation
Assay type: cell-based
Parameters: endogenous in cells; host or cells: PBMC
Settings: treated overnight
reported_property: DC50

Would you please look over these solved cases?
O=C1CCC(N2C(=O)c3ccc(N4CC(CN5CCC(N6Cc7cc(NC(=O)c8cnn9cccnc89)c(N8CCOCC8)cc7C6=O)CC5)C4)cc3C2=O)C(=O)N1 (stereo not shown) [Example 96]    1 to 5 nM
CC(C)Oc1cc2c(cc1NC(=O)c1cnn3cccnc13)CN(C1CCN(CC3CCN(c4ccc5c(c4)C(=O)N([C@H]4CCC(=O)NC4=O)C5=O)CC3)CC1)C2=O [Example 48]    < 1 nM
O=C1CCC(N2C(=O)c3ccc(N4CCN(C[C@H]5CC[C@H](n6cc7cc(NC(=O)c8cnn9cccnc89)c(OCC8CC8)cc7n6)CC5)CC4)cc3C2=O)C(=O)N1 (stereo partly shown) [Example 375]    1 to 5 nM

Q: Form entry - test system: IRAK-4 (Homo sapiens); read-out: DC50; molecule: CN(C1CN(c2ccc3c(c2F)CN(C2CCC(=O)NC2=O)C3=O)C1)[C@H]1CC[C@H](n2cc3cc(NC(=O)c4cnn5cccnc45)c(OCC4CC4)cc3n2)CC1 (stereo partly shown) [Example 361]
A: < 1 nM

* * *

Biological target: IRAK-4 (Homo sapiens)
Assay: IRAK-4 ELISA, PBMC degradation
Format: cell-based
Design: endogenous in cells; host or cells: PBMC
Settings: treated overnight
compounds and their reported Dmax

CC(C)Oc1cc2c(cc1NC(=O)c1cnn3cccnc13)CN(C1CCN(CC3CN(c4ccc5c(c4)CN(C4CCC(=O)NC4=O)C5=O)C3)CC1)C2=O (stereo not drawn)    ≥ 90%
O=C1CCC(N2C(=O)c3ccc(N4CCCC5(C4)CN([C@H]4CC[C@H](n6cc7cc(NC(=O)c8cnn9cccnc89)c(OCC8CC8)cc7n6)CC4)C5)cc3C2=O)C(=O)N1 (stereo partly drawn)    80 to 90%

Consider the additional compound presented here.
Q: I'd like to know its Dmax. The compound in question is O=C1CCC(N2Cc3ccc(N4CCC(CN5CCC(n6cc7cc(NC(=O)c8cnn9cccnc89)c(OCC8CC8)cc7n6)CC5)CC4)cc3C2=O)C(=O)N1 (stereo not drawn)
A: ≥ 90%

* * *

Biological target: IRAK-4 (Homo sapiens, UniProt Q9NWZ3)
Assay: IRAK-4 ELISA, PBMC degradation
Type: cell-based
Set-up: endogenous in cells; host or cells: PBMC
Conditions: treated overnight
reported_property: DC50

Would you please look over these solved cases?
O=C1CCC(NC(=O)c2ccc(N3CCC(CN4CCC(n5cc6cc(NC(=O)c7cnn8cccnc78)c(OCC7CC7)cc6n5)CC4)CC3)cc2F)C(=O)N1 (centres unmarked) [Example 288]    < 1 nM
O=C1CCC(N2C(=O)c3ccc(N4CC(CN5CCC(N6Cc7cc(NC(=O)c8cnn9cccnc89)c(OCC8CC8)cc7C6=O)CC5)C4)cc3C2=O)C(=O)N1 (centres unmarked) [Example 86]    1 to 5 nM
O=C1CCC(N2C(=O)c3ccc(N4CCC(CN5CCC([C@H](F)Cn6cc7cc(NC(=O)c8cnn9cccnc89)c(OCC8CC8)cc7n6)CC5)CC4)cc3C2=O)C(=O)N1 (some centres unmarked) [Example 182]    < 1 nM
CC(C)Oc1cc2nn(C3CCN(CC4CN(c5ccc(F)c(C(=O)NC6CCC(=O)NC6=O)c5)C4)CC3)cc2cc1NC(=O)c1cnn2cccnc12 (centres unmarked) [Example 307]    ≥ 10 nM
O=C1CCC(N2C(=O)c3ccc(N4CC(F)(CN5CCC(n6cc7cc(NC(=O)c8cnn9cccnc89)c(OCC(F)F)cc7n6)CC5)C4)cc3C2=O)C(=O)N1 (centres unmarked) [Example 231]    1 to 5 nM

Q: I'd like to know its DC50. The compound in question is CN(CC1(C)CCN(c2ccc3c(c2)C(=O)N(C2CCC(=O)NC2=O)C3=O)CC1)C1CCC(n2cc3cc(NC(=O)c4cnn5cccnc45)c(OCC4CC4)cc3n2)CC1 (centres unmarked) [Example 356]
A: 1 to 5 nM

Q: I'd like to know its DC50. The compound in question is O=C1CCC(N2C(=O)c3ccc(N4CCC(CN5CCC(n6cc7cc(NC(=O)c8cnn9cccnc89)c(N8CCC(N9CCC9)CC8)cc7n6)CC5)CC4)cc3C2=O)C(=O)N1 (centres unmarked) [Example 150]
A: 1 to 5 nM
